Below is a list of entries, each paired with its recorded proportion of females responding value.
Tested on: walnut twig beetle (WTB), Pityophthorus juglandis
assay: Example 1 Field Test 1: flight response to X and related isomers, yellow sticky card traps
Type: in vivo
condition_info: Davis CA
parameter_measured: proportion of females responding

>>> experimental_value("CC(C)=CCO [X, 3-methyl-2-buten-1-ol]")
0.65
>>> experimental_value("CC(C)=CC=O [X-1, 3-methyl-2-butenal]")
0.65
>>> experimental_value("C=C(C)CCO [X-3, 3-methyl-3-buten-1-ol]")
0.33
>>> experimental_value("CC(C)CCO [X-2, 3-methyl-1-butanol]")
0.48

---

Below is a list of entries, each paired with its recorded trap catches, female WTB value.
System: walnut twig beetle (WTB), Pityophthorus juglandis
assay: Example 1 Field Test 1: flight response to X and related isomers, yellow sticky card traps
Format: in vivo
condition_info: about three months in summer, Davis CA, N=21
parameter_measured: trap catches, female WTB

>>> experimental_value("CC(C)CCO")
21
>>> experimental_value("CC(C)=CCO")
438
>>> experimental_value("CC(C)=CC=O")
20
>>> experimental_value("C=C(C)CCO")
2
